This collection of values is drawn from patent US10071990B2.

System Under Test: tubulin tyrosine ligase (Homo sapiens)
Construct: made in house; host or cells: Escherichia coli BL21
Sequence (Q8NG68 1-377): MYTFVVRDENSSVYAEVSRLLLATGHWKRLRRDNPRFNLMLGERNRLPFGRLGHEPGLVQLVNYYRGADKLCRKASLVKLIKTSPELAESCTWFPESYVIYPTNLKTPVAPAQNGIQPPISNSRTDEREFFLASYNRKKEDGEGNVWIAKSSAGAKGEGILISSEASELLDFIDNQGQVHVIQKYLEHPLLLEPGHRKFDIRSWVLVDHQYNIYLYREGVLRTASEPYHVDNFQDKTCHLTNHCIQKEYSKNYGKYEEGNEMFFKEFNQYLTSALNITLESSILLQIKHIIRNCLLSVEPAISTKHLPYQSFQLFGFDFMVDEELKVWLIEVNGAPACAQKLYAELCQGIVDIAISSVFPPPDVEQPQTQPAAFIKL
Assay Name: Inhibition of [3H]-L-tyrosine incorporation into tubulin by TTL
Format: biochemical
pKi: −log10 of the molar value.
Assay Endpoint: pKi

In [3]: df
Out[3]:
                                   compound  assay_endpoint  observed
0  [N-]=[N+]=Nc1cc(C[C@H](N)C(=O)O)ccc1O [3-Azidotyrosine]             pKi      3.70
1  N[C@@H](Cc1ccc(O)c(C=O)c1)C(=O)O [3-Formyltyrosine]             pKi      3.52
